All values here come from paper PMC5974090.

- MEASUREMENT TARGET: maytansine site of tubulin (Bos taurus, UniProt Q6B856)
- Sequence (P81947 whole entry): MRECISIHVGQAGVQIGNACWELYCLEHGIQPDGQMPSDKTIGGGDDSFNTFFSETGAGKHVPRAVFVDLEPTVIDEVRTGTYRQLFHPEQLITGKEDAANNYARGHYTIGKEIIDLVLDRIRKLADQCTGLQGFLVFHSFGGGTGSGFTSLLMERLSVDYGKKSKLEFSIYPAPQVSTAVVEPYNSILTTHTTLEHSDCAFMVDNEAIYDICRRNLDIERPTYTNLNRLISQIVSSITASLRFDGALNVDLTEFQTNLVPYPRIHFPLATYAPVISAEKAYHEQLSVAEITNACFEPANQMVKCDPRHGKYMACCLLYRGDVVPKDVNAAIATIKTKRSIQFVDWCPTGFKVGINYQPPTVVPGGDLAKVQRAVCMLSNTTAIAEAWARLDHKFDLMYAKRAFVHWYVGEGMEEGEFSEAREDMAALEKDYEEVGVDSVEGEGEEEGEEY
- Sequence (Q6B856 whole entry): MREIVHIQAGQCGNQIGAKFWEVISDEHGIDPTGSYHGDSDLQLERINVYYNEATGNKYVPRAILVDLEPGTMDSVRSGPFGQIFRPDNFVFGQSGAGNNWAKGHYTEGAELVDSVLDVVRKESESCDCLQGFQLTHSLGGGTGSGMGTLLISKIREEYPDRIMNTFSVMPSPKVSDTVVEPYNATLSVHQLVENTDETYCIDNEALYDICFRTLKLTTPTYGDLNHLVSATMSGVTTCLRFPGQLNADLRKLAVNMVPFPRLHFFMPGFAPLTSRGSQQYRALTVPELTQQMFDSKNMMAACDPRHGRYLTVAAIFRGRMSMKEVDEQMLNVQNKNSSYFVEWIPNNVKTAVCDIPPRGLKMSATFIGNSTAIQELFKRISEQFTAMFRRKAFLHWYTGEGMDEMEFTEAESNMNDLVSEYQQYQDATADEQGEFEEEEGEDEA
- EXPERIMENTAL SETUP: 10 nM FcMaytansine, 4 nM tubulin, 25 °C, mean ± SEM; n = 3; read-out: Kd from FcMaytansine displacement
- Procedure: Vinblastine and colchicine were used as negative controls. […] The mixture was then incubated with an unlabeled competitor at increasing concentrations prior to anisotropy measurements. Fluorescence anisotropy competition experiments and analyses were performed as previously described[34] with minor modifications. […] Fluorescence anisotropy measurements were carried out as described above. […]
MEASURED ATTRIBUTE: pKd
Answers are plain numbers, as −log10 of the molar value.

I would be grateful if you could share the reported pKd for `C/C=C\C[C@@H](C/C=C\NC(=O)[C@@H](NC(=O)\C=C/C=C\C(C)=C\[C@H](C)[C@@H]1CC=C(OC)C(=O)O1)C(C)(C)C)OC(N)=O` . 6.95
